Data credit: ChEMBL document CHEMBL4041509

Target: ATP-dependent translocase ABCB1 (Homo sapiens, UniProt P08183)
Sequence (P08183 whole entry): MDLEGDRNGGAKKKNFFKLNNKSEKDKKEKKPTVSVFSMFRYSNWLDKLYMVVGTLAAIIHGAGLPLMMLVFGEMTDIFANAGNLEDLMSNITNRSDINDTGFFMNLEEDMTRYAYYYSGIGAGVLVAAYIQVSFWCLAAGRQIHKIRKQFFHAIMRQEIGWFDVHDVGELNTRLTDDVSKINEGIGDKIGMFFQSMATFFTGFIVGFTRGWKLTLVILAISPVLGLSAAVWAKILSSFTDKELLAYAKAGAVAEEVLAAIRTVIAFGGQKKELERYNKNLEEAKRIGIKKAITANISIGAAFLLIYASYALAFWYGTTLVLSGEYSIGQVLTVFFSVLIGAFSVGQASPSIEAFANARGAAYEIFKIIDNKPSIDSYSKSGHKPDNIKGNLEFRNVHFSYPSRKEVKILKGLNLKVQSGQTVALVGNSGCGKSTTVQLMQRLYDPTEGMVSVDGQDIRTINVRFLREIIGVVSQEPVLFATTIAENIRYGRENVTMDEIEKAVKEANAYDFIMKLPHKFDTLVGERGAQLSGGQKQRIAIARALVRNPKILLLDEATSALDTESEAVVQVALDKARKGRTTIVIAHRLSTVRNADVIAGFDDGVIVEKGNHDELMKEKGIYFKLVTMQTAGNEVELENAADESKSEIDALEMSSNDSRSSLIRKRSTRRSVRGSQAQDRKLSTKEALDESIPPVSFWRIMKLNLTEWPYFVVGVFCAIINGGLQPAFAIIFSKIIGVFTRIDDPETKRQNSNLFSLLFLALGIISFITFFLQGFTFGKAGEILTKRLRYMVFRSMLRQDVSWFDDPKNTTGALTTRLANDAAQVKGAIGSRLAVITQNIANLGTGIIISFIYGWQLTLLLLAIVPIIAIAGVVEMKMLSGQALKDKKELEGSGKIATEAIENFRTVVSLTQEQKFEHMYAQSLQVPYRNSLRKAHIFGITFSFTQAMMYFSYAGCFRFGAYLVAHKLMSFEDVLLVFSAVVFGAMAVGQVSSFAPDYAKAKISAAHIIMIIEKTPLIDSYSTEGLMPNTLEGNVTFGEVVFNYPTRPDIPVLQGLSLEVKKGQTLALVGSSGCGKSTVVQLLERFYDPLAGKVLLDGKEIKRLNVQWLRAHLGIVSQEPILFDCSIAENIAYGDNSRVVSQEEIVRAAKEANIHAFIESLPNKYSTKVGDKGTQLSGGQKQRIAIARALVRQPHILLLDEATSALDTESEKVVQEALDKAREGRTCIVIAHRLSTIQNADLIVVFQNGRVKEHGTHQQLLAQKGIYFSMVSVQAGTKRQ
Test: Inhibition of ABCB1 (unknown origin) expressed in Flp-In-293 cells assessed as increase in calcein-AM uptake at 10 uM preincubated for 30 mins followed by calcein-AM addition measured after 30 mins by fluorescence spectrometric method relative to control
Format: cell-based
Conditions: 0.5 h
test.readout: fold change (FC)

>  <query.smiles>
COc1ccc(-c2cc(OCc3ccncc3)c3c(-c4cccs4)c(N)oc3c2)cc1

>  <target.system>
ATP-dependent translocase ABCB1 (Homo sapiens, UniProt P08183)

>  <numeric.value>
5.88

$$$$
>  <query.smiles>
COc1ccc(-c2cc(OCc3ccccn3)c3c(-c4cccs4)c(N)oc3c2)cc1

>  <target.system>
ATP-dependent translocase ABCB1 (Homo sapiens, UniProt P08183)

>  <numeric.value>
4.33

$$$$
>  <query.smiles>
COc1ccc(-c2cc(OCCN3CCOCC3)c3c(-c4cccs4)c(N)oc3c2)cc1

>  <target.system>
ATP-dependent translocase ABCB1 (Homo sapiens, UniProt P08183)

>  <numeric.value>
8.86

$$$$
>  <query.smiles>
COc1ccc(-c2cc(OCc3cccc(Cl)c3)c3c(-c4cccs4)c(N)oc3c2)cc1

>  <target.system>
ATP-dependent translocase ABCB1 (Homo sapiens, UniProt P08183)

>  <numeric.value>
0.56

$$$$
>  <query.smiles>
CCN(CC)CCOc1cc(-c2ccc(OC)cc2)cc2oc(N)c(-c3cccs3)c12

>  <target.system>
ATP-dependent translocase ABCB1 (Homo sapiens, UniProt P08183)

>  <numeric.value>
10.14

$$$$

(A) COc1ccc(-c2cc(OCCN3CCCC3)c3c(-c4cccs4)c(N)oc3c2)cc1OC
(B) COc1ccc(-c2cc(OCc3ccc([N+](=O)[O-])cc3)c3c(-c4cccs4)c(N)oc3c2)cc1
(C) COc1ccc(-c2cc(OCCN3CCCCC3)c3c(-c4cccs4)c(N)oc3c2)cc1
Asked: hey, can you rank those compounds up there by fold change (FC)? biggest number first please Reply format: the labels, ordered as requested.
Given back: A, C, B

----------
Biological target: UniProtKB P08183
Assay: Inhibition of ABCB1 (unknown origin) expressed in Flp-In-293 cells assessed as increase in calcein-AM uptake at 2.5 uM preincubated for 30 mins followed by calcein-AM addition measured after 30 mins by fluorescence spectrometric method relative to control
Format: cell-based
Conditions: 0.5 h
test.readout: fold change (FC)

>  <query.smiles>
COc1ccc(-c2cc(OC(C)=O)c3c(-c4ccc(Cl)c(Cl)c4)c(N)oc3c2)cc1

>  <numeric.value>
1.82

$$$$
>  <query.smiles>
COc1ccc(-c2cc(OC(C)=O)c3c(-c4ccc(OC)cc4)c(N)oc3c2)cc1

>  <numeric.value>
1.17

$$$$
>  <query.smiles>
COc1ccc(-c2cc(OC(C)=O)c3c(-c4ccccc4OC)c(N)oc3c2)cc1

>  <numeric.value>
1.32

$$$$
